Tested on: MDA-MB-435
Outcomes: active, inactive

Molecule: [O]=[Sn]([CH]1CCCCC1)[CH]1CCCCC1
Class name: active

Molecule: NC(=NCCCCCCN=C(N)/N=C(\N)Nc1ccc(Cl)cc1)/N=C(\N)Nc1ccc(Cl)cc1
Class name: inactive

Molecule: Cc1cc(NC(=O)NCc2ccc(N3C(N)=NC(N)=NC3(C)C)cc2)ccc1S(=O)(=O)F
Class name: inactive

Molecule: O=C(Nc1cccc(-n2ccc3c(NC(=O)c4ccccc4)ncnc32)c1)Nc1ccc(Cl)c(C(F)(F)F)c1
Class name: inactive

Molecule: CC[C@H](C)[C@H](NC(=O)[C@H]1CCCCN1C)C(=O)N(C)[C@H](CCc1nc(C(=O)N[C@@H](Cc2ccccc2)C[C@H](C)C(=O)O)cs1)C(C)C
Class name: active

Molecule: CCCCNc1ncnc2c1cnn2-c1ccccc1
Class name: active

Molecule: CCn1cc(C(=O)O)c(=O)c2cc(F)c(N3CCN(S(=O)(=O)c4ccc(Cl)cc4Cl)CC3)cc21
Class name: inactive

Molecule: Nc1ncn([C@H]2CC(O)[C@@H](CO)S2)c(=O)n1 (stereo partly specified)
Class name: inactive

Molecule: Clc1ccc(C=Nc2ccc(-c3nc4ccccc4[nH]3)cc2)cc1
Class name: inactive

Molecule: COc1cc(C(=O)c2cnc(-c3c[nH]c4cccc(C)c34)[nH]2)cc(OC)c1OC
Class name: active

Molecule: O=c1c(I)c[nH]cc1I
Class name: inactive
